Listing of entries alongside the reported pEC50.
# TARGET SYSTEM: human TAS1R2-I234V/TAS1R3-WT (Homo sapiens, UniProt Q7RTX0+Q8TE23, I234V)
# Sequence (Q8TE23 20-839 I234V): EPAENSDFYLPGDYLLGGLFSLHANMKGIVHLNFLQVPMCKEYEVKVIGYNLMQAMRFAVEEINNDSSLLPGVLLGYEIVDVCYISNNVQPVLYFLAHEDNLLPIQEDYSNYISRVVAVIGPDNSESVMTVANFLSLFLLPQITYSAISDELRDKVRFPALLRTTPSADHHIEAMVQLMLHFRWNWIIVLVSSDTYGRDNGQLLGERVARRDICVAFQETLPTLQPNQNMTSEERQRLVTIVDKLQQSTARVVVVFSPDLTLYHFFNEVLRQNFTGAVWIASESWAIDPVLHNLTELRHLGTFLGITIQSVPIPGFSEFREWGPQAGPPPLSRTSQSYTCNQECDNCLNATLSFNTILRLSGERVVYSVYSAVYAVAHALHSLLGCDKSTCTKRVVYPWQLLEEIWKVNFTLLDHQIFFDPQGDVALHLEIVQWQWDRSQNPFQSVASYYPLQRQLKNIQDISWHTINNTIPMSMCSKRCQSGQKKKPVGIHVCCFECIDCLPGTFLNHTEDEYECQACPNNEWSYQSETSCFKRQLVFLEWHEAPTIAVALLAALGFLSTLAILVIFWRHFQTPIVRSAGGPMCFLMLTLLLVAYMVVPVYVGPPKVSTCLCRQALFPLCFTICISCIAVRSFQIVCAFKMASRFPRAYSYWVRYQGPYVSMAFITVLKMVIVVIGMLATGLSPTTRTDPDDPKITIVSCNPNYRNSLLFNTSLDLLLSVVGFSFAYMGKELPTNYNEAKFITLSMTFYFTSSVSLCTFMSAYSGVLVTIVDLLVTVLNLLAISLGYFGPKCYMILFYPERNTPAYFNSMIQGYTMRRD
# Sequence (Q7RTX0 21-852): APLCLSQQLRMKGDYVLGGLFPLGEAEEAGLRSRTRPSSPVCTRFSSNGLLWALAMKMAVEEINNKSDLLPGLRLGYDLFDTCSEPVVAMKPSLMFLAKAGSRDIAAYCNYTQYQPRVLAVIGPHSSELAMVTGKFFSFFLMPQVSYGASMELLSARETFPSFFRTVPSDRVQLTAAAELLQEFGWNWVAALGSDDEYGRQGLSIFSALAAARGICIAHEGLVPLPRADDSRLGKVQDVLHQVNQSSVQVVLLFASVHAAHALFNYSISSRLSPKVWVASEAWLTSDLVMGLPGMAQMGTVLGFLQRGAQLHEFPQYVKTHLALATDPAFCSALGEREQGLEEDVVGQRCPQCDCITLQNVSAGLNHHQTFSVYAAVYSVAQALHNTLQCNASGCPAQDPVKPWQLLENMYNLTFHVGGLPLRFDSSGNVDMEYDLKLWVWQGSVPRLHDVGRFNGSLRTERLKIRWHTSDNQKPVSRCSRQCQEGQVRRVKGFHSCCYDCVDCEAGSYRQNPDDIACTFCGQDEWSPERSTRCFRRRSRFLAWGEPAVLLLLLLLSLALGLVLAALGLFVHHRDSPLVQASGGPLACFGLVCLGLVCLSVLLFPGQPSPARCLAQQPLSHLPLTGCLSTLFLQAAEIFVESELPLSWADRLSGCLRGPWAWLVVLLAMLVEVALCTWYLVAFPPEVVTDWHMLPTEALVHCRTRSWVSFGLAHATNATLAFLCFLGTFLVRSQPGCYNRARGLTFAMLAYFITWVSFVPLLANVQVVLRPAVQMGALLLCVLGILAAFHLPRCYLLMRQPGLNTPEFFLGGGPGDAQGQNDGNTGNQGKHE
# PROTOCOL TEXT: Calcium mobilisation assay, TAS1R2 variant I234V with TAS1R3-WT
# Description: The coding sequences for TAS1R2 and TAS1R3 were commercially synthesised, and the human codon was optimised for expression in human cells. […] The HEK293T cells were kindly provided by Jay P. Slack (Givaudan Flavors Corporation; Cincinnati, OH, USA). […] The Ca^2+ changes were expressed as fractional changes in fluorescent light intensity: ΔF/F = (F − F0)/F0, where F was the fluorescent light intensity at each point, and F0 was the value of emitted fluorescent light prior to stimulus application. […]
pEC50: −log10 of the molar value.
READOUT NAME: pEC50

COMPOUND: C[C@H](CC[C@@H](O[C@@H]1O[C@H](CO[C@@H]2O[C@H](CO)[C@@H](O)[C@H](O)[C@H]2O)[C@@H](O)[C@H](O)[C@H]1O[C@@H]1O[C@H](CO)[C@@H](O)[C@H](O)[C@H]1O)C(C)(C)O)[C@H]1CC[C@@]2(C)[C@@H]3CC=C4[C@@H](CC[C@H](O[C@@H]5O[C@H](CO[C@@H]6O[C@H](CO)[C@@H](O)[C@H](O)[C@H]6O)[C@@H](O)[C@H](O)[C@H]5O)C4(C)C)[C@]3(C)[C@H](O)C[C@]12C [Mogroside V, mogroside V]
READOUT VALUE: 4.71
--
COMPOUND: C=C(C)[C@@H]1CC=C(/C=N/O)CC1
READOUT VALUE: 4.70
--
COMPOUND: COc1ccc(CCC(=O)c2c(O)cc(O[C@@H]3O[C@H](CO)[C@@H](O)[C@H](O)[C@H]3O[C@@H]3O[C@@H](C)[C@H](O)[C@@H](O)[C@H]3O)cc2O)cc1O [NHDC, neohesperidin dihydrochalcone]
READOUT VALUE: 4.02
--
COMPOUND: O=S(=O)(O)NC1CCCCC1 [Cyclamate, cyclamate]
READOUT VALUE: 2.65
--
COMPOUND: COC(=O)[C@H](Cc1ccccc1)NC(=O)[C@H](CC(=O)O)NCCC(C)(C)C
READOUT VALUE: 6.10
--
COMPOUND: OC[C@H]1O[C@H](O[C@]2(CCl)O[C@H](CCl)[C@@H](O)[C@@H]2O)[C@H](O)[C@@H](O)[C@H]1Cl
READOUT VALUE: 4.22
--
COMPOUND: CC1=CC(=O)NS(=O)(=O)O1
READOUT VALUE: 3.29
--
COMPOUND: C=C1C[C@@]23CC[C@H]4[C@@](C)(CCC[C@@]4(C)C(=O)O[C@@H]4O[C@H](CO)[C@@H](O)[C@H](O[C@@H]5O[C@H](CO)[C@@H](O)[C@H](O)[C@H]5O)[C@H]4O[C@@H]4O[C@H](CO)[C@@H](O)[C@H](O)[C@H]4O)[C@@H]2CC[C@]1(O[C@@H]1O[C@H](CO)[C@@H](O)[C@H](O[C@@H]2O[C@H](CO)[C@@H](O)[C@H](O)[C@H]2O)[C@H]1O[C@@H]1O[C@H](CO)[C@@H](O)[C@H](O)[C@H]1O)C3 [Rebaudioside M, rebaudioside M]
READOUT VALUE: 4.74

Data origin, for the record: paper PMC11945486
